- tgt: recombinant human GALK1 (Homo sapiens)
- Sequence (P51570 whole entry): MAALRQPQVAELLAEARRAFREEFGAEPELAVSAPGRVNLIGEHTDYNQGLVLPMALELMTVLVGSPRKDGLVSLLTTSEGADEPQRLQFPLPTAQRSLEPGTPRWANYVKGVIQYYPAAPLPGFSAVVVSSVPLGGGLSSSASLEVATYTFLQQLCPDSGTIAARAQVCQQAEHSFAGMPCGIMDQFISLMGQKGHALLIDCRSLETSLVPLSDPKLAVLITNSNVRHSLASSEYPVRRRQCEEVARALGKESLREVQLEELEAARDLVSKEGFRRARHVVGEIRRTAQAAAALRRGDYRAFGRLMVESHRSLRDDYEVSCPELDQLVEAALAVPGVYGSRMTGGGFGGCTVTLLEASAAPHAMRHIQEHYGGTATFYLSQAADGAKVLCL
- protocol details: hGALK1 biochemical activity assay (Kinase-Glo Plus, ATP depletion)
- run conditions: recombinant human GALK1, Kinase-Glo Plus ATP depletion; read-out: hGALK
endpoint name: pIC50
# pIC50 = -log10(concentration in molar units)

>>> print(df.to_string())
                                   compound  endpoint_name  numeric_readout
0  COC(=O)c1csc(NC(=O)C2=C(C)NC(Nc3nc4ccccc4o3)=NC2c2ccccc2Cl)n1 (stereo not drawn)          pIC50             4.91
1  COC(=O)c1ccnc(NC(=O)C2=C(C)NC(Nc3nc4ccccc4o3)=NC2c2ccccc2Cl)c1 (stereo not drawn)          pIC50             5.56
2  CC1=C(C(=O)Nc2ccc(C#N)cn2)C(c2ccccc2Cl)N=C(Nc2nc3ccc(F)cc3o2)N1 (stereo not drawn)          pIC50             4.86
3  CC1=C(C(=O)NCc2cnn(C)c2)C(c2ccc(Cl)cc2Cl)N=C(Nc2nc3cccc(N)c3o2)N1 (stereo not drawn)          pIC50             5.96
4  CC1=C(C(=O)NCc2ccc(F)cc2)C(c2ccccc2Cl)N=C(Nc2nc3ccccc3o2)N1 (stereo not drawn)          pIC50             5.11

Prompt: Using the record for COc1ccc(C2N=C(Nc3nc4cccc(N)c4o3)NC(C)=C2C(=O)Nc2cc(C(=O)O)ccn2)c(Cl)c1 (racemic) , state its measured pIC50.
Completion: 6.85

Prompt: Complete the entry with pIC50 for CC1=C(C(=O)Nc2nnc(C(F)(F)F)s2)C(c2ccccc2Cl)N=C(Nc2nc3ccccc3o2)N1 (stereo not drawn)
Completion: 4.91

Prompt: Look up and report measured pIC50 for this entry: "CC1=C(C(=O)Nc2cc(C(=O)O)ccn2)[C@H](c2ccccc2Cl)N=C(Nc2nc3cccc(N)c3o2)N1"
Completion: 6.07

Prompt: Respond only with pIC50 recorded for CC1=C(C(=O)NCc2cccnc2)C(c2ccccc2Cl)N=C(Nc2nc3ccccc3o2)N1 (stereo not drawn)
Completion: 5.16

---

- protocol details: PAMPA permeability
- run conditions: PAMPA
Perm. (1 × 10^−6 cm/sec) reference

Solved cases below.
>>> df
                                   compound                 result
0  CC1=C(C(=O)Nc2ncc(C(=O)O)s2)C(c2ccccc2Cl)N=C(Nc2nc3ccccc3o2)N1 (stereo not shown)    <1 1 × 10^−6 cm/sec
1  CC1=C(C(=O)Nc2nnc(C(F)(F)F)s2)C(c2ccccc2Cl)N=C(Nc2nc3ccccc3o2)N1 (stereo not shown)  12.6 1 × 10^−6 cm/sec
2  CC1=C(C(=O)Nc2nncs2)C(c2ccccc2C)N=C(Nc2nc3ccccc3o2)N1 (stereo not shown)  83.8 1 × 10^−6 cm/sec
3  CC1=C(C(=O)NCc2ccc(C(=O)O)cc2)C(c2ccccc2Cl)N=C(Nc2nc3ccccc3o2)N1 (stereo not shown)    <1 1 × 10^−6 cm/sec
4  CC1=C(C(=O)NCc2cncn2C)C(c2ccccc2Cl)N=C(Nc2nc3ccccc3o2)N1 (stereo not shown)  98.8 1 × 10^−6 cm/sec

Prompt: Using known records, supply Perm. (1 × 10^−6 cm/sec) for CC1=C(C(=O)NCCN(C)C)C(c2ccccc2Cl)N=C(Nc2nc3ccccc3o2)N1 (stereo not shown)
Completion: >1227 1 × 10^−6 cm/sec

Prompt: Answer with the recorded Perm. (1 × 10^−6 cm/sec) of CC1=C(C(=O)NCc2cccnc2)C(c2ccccc2Cl)N=C(Nc2nc3ccccc3o2)N1 (stereo not shown) only.
Completion: 1248.8 1 × 10^−6 cm/sec

---

Catalogue of Metab. Stabil. (m) readings, one per entry.
- protocol details: rat microsomal stability (RLM)
- run conditions: microsomal half-life

The following compounds have reported results that may help.
                                   compound       endpoint_name  result
0  CC1=C(C(=O)Nc2cc(C#N)ccn2)C(c2ccccc2Cl)N=C(Nc2nc3ccc(F)cc3o2)N1 (stereo not shown) [Compound 39]  Metab. Stabil. (m)   >30 m
1  CCn1cc(CNC(=O)C2=C(C)NC(Nc3nc4ccc(F)cc4o3)=NC2c2ccc(C)cc2Cl)cn1 (stereo not shown) [Compound 112]  Metab. Stabil. (m)  9.22 m
2  CC1=C(C(=O)Nc2cc(C(=O)O)ccn2)C(c2ccc(C(=O)O)cc2Cl)N=C(Nc2nc3ccc(F)cc3o2)N1 (stereo not shown) [Compound 72]  Metab. Stabil. (m)   >30 m
3  CC1=C(C(=O)Nc2cc(C(=O)O)ccn2)C(c2ccc(C)cc2Cl)N=C(Nc2nc3ccc(F)cc3o2)N1 (racemic) [Compound 50]  Metab. Stabil. (m)   >30 m
4  CC1=C(C(=O)Nc2cc(C(=O)O)ccn2)[C@@H](c2ccccc2Cl)N=C(Nc2nc3ccc(F)cc3o2)N1 [Compound 20]  Metab. Stabil. (m)   >30 m

Prompt: Kindly indicate its recorded Metab. Stabil. (m). Item: COc1ccc2nc(NC3=NC(c4ccccc4Cl)C(C(=O)Nc4cc(C(=O)O)ccn4)=C(C)N3)oc2c1 (stereo not shown) [Compound 7]
Completion: >30 m

Prompt: Supply reported Metab. Stabil. (m) belonging to this compound: CC1=C(C(=O)Nc2cc(C(=O)O)ccn2)C(c2ccccc2Cl)N=C(Nc2nc3cccc(N)c3o2)N1 (racemic) [Compound 3]
Completion: >30 m

Prompt: Output Metab. Stabil. (m) of CC1=C(C(=O)Nc2cc(C(=O)O)ccn2)C(c2ccccc2Cl)N=C(Nc2nc3cccc(C)c3o2)N1 (stereo not shown) [Compound 15]
Completion: >30 m

---

- tgt: recombinant mouse GALK1 (Mus musculus, UniProt Q9R0N0)
- Sequence (Q9R0N0 whole entry): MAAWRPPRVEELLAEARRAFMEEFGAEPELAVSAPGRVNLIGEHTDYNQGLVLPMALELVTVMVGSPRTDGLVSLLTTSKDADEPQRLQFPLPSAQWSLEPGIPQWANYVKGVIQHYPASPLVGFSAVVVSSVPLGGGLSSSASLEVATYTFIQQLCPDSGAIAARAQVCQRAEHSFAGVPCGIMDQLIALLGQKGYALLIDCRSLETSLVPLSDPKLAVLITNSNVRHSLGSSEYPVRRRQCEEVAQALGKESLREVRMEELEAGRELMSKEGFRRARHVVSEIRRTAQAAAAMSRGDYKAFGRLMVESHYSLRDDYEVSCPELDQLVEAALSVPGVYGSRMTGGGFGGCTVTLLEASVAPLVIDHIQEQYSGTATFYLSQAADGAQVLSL
- protocol details: mGALK1 biochemical activity assay (Kinase-Glo Plus, ATP depletion)
- run conditions: recombinant mouse GALK1, Kinase-Glo Plus ATP depletion; read-out: mGALK
endpoint name: pIC50
pIC50 (log units): -log10 of the concentration in mol/L.

>>> print(df.to_string())
                                   compound  endpoint_name  numeric_readout
0  CC1=C(C(=O)NCc2cn(C)cn2)[C@H](c2ccccc2Cl)N=C(Nc2nc3ccccc3o2)N1          pIC50             5.36
1  CC1=C(C(=O)Nc2nnc(-c3ccncc3)s2)C(c2ccccc2Cl)N=C(Nc2nc3ccccc3o2)N1 (centres unmarked)          pIC50             4.71
2  CC1=C(C(=O)Nc2cccnc2)C(c2ccccc2Cl)N=C(Nc2nc3ccccc3o2)N1 (centres unmarked)          pIC50             4.91
3  CC1=C(C(=O)Nc2ccc(C(N)=O)cn2)C(c2ccccc2Cl)N=C(Nc2nc3ccc(F)cc3o2)N1 (centres unmarked)          pIC50             5.16
4  CC1=C(C(=O)Nc2nnc(-c3cccnc3)s2)C(c2ccccc2Cl)N=C(Nc2nc3ccccc3o2)N1 (centres unmarked)          pIC50             5.01
5  CCn1cc(CNC(=O)C2=C(C)NC(Nc3nc4ccc(F)c(N)c4o3)=NC2c2ccccc2Cl)cn1 (centres unmarked)          pIC50             5.66
6  COC(=O)c1ccnc(NC(=O)C2=C(C)NC(Nc3nc4ccccc4o3)=N[C@H]2c2ccccc2Cl)c1          pIC50             5.16
7  CC1=C(C(=O)Nc2cc(C(=O)O)ccn2)C(c2ccccc2Cl)N=C(Nc2nc3ccc(Cl)cc3o2)N1 (centres unmarked)          pIC50             5.21
8  CC1=C(C(=O)Nc2cc(C(=O)O)ccn2)C(c2ccc(-c3ccc(C)nc3)cc2Cl)N=C(Nc2nc3ccc(F)cc3o2)N1 (centres unmarked)          pIC50             5.91
9  CC1=C(C(=O)Nc2cc(C(=O)O)ccn2)C(c2ccc(-n3cccn3)cc2Cl)N=C(Nc2nc3ccc(F)cc3o2)N1 (centres unmarked)          pIC50             5.46

Prompt: Write down pIC50 measured for item CC1=C(C(=O)Nc2cc(C(=O)O)ccn2)C(c2ccccc2Cl)N=C(Nc2nc3cccc(C)c3o2)N1 (centres unmarked)
Completion: 5.16

Prompt: Query pIC50 for "COc1ccc([C@@H]2N=C(Nc3nc4cccc(N)c4o3)NC(C)=C2C(=O)Nc2cc(C(=O)O)ccn2)c(Cl)c1"
Completion: 5.61

Prompt: State, in one line, measured pIC50 of CC1=C(C(=O)Nc2cc(C(=O)O)ccn2)C(c2ccc(N3CCOCC3)cc2Cl)N=C(Nc2nc3ccc(F)cc3o2)N1 (centres unmarked)
Completion: 5.41

Prompt: Specify reported pIC50 for the compound shown: CC1=C(C(=O)Nc2ccc(C(=O)O)cc2)C(c2ccccc2Cl)N=C(Nc2nc3ccccc3o2)N1 (centres unmarked)
Completion: 5.21

Prompt: Recall and state the measured pIC50 for CC1=C(C(=O)Nc2nncs2)C(c2ccccc2Cl)N=C(Nc2nc3ccccc3o2)N1 (centres unmarked) .
Completion: 5.11

Prompt: Give reported pIC50 value for CC1=C(C(=O)Nc2cc(C(=O)O)ccn2)C(c2ccccc2Cl)N=C(Nc2nc3ccc(F)cc3o2)N1 (racemic)
Completion: 5.36

Values were extracted from patent US20230158025A1.
